Attribution: patent US20170355757A1

- study target: T1, Human C5 (human, UniProt P01031 19-1676)
- T1 construct: The natural protein has a beta and an alpha chain; also called complement factor 5; complement component 5
- assay overview: SPR, mAb captured by anti-hFc, 37C
What pKd was measured for each of the following?
# reply with the number alone; pKd is -log10 of concentration in mol/L

Would you kindly share the measured pKd for H4H12170P (antibody, human IgG4, V domains shown) VH: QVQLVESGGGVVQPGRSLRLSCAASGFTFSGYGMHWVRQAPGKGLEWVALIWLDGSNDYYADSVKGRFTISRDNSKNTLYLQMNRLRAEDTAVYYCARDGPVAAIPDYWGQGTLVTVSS VL: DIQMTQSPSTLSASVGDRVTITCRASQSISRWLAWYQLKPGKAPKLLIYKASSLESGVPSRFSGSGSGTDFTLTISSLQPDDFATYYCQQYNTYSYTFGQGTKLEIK ?
8.85

H4H11683N (antibody, human IgG4, V domains shown, also called H2M11683N) VH: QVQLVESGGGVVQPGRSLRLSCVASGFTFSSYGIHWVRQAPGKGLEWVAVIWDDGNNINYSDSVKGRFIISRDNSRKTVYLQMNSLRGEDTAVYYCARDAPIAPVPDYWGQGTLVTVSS VL: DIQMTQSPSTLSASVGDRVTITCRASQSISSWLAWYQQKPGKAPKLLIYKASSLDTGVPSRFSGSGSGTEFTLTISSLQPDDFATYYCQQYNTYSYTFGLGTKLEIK ?
9.27

H4H12164P (antibody, human IgG4, V domains shown) VH: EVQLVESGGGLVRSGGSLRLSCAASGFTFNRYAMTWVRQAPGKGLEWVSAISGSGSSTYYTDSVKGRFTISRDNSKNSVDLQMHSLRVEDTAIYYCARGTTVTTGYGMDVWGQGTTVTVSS VL: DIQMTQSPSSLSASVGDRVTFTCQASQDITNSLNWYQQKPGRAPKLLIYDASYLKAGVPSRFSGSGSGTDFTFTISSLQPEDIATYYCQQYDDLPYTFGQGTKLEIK ?
9.49

H4H12166P5 (antibody, human IgG4, V domains shown, human IgG4 Fc with S108P hinge mutation) VH: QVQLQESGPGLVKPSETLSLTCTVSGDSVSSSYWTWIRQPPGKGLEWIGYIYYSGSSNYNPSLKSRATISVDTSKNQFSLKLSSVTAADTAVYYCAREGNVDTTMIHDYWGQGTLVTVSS VL: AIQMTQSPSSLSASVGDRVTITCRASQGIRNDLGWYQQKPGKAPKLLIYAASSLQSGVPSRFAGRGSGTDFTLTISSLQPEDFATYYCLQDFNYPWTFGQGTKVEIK ?
8.56

H4H11686N (antibody, human IgG4, V domains shown, also called H2M11686N) VH: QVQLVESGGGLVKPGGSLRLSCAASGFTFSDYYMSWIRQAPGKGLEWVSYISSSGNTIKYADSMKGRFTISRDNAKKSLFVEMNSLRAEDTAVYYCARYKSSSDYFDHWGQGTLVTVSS VL: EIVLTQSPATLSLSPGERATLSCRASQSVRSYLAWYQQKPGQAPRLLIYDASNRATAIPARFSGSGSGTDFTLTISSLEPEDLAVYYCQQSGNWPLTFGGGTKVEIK ?
9.33
